test system: SH-SY5Y; experiment: Neuroprotective activity against CdCl2-induced toxicity in human SH-SY5Y cells assessed as cell viability at 25 uM preincubated for 2 hrs followed by CdCl2 challenge and measured after 24 hrs by CCK8 assay (reference value: 46.2 +/- 1.7%); assay type: functional; conditions: read-out: Activity
Recorded viability at 25 µM values for a group of compounds are listed next.

smiles.input | viability at 25 µM
O=C1Nc2ccc(Br)cc2CN2C(=O)CC[C@@H]12 | 66.1%
O=C1Nc2cc3c(cc2CN2C(=O)CC[C@H]12)OCO3 | 56.6%
COc1cc2c(cc1OCc1ccccc1)CN1C(=O)CC[C@@H]1C(=O)N2 | 60.4%
O=C1[C@@H]2CCC(=O)N2Cc2ccccc2N1CCCCN1CCN(c2ncccn2)CC1 | 59.2%
O=C1[C@@H]2CCC(=O)N2Cc2ccccc2N1CCCCN1CCN(c2ccccn2)CC1 | 66.2%

Switching to the query record.
[Q] Which viability at 25 µM is reported for this compound? `O=C1[C@@H]2CCC(=O)N2Cc2ccccc2N1CCCCCN1CCN(c2ncccn2)CC1`
[A] 51.4%

----------
tested on: SH-SY5Y; experiment: Neuroprotective activity against CdCl2-induced toxicity in human SH-SY5Y cells assessed as cell viability at 25 uM preincubated for 2 hrs followed by CdCl2 challenge and measured after 24 hrs by CCK8 assay (reference value: 46.2 +/- 1.7%); format: functional; details: read-out: Activity
In plain terms, low viability at 25 µM, meaning strictly below 60%, gives T, and everything else gives F.

Worked set:
smiles.input | system.under.test | category
COc1cc2c(cc1OCc1ccccc1)CN1C(=O)CC[C@H]1C(=O)N2 | SH-SY5Y | F
O=C1Nc2ccccc2CN2C(=O)CC[C@@H]12 | SH-SY5Y | T
COc1cc2c(cc1OCc1ccccc1)CN1C(=O)CC[C@H]1C(=O)N2CCCCN1CCN(c2ncccn2)CC1 | SH-SY5Y | F

[Q] Dear colleague, could you confirm whether viability at 25 µM of `Cc1ccccc1-c1ccc2c(c1)CN1C(=O)CC[C@H]1C(=O)N2` falls below 60%? Thanks.
[A] T

[Q] In plain terms, does `Cc1ccc(-c2ccc3c(c2)CN2C(=O)CC[C@@H]2C(=O)N3)cc1` come in under 60% for viability at 25 µM?
[A] T

[Q] is_below(viability at 25 µM, 60%) for `O=C1Nc2ccccc2CN2C(=O)CC[C@H]12` ?
[A] T

[Q] viability at 25 µM strictly < 60% for this compound? `O=C1[C@@H]2CCC(=O)N2Cc2cc(Br)ccc2N1CCCCN1CCN(c2ccccn2)CC1`
[A] F

[Q] # check: viability at 25 µM < 60% for `O=C1Nc2ccc(Cl)cc2CN2C(=O)CC[C@H]12`
[A] T
